Source of measurements: ChEMBL document CHEMBL3433997

EXPERIMENTAL_SYSTEM: Glucose transporter (Leishmania mexicana)
ASSAY_OVERVIEW: ST_JUDE_LEISH: Cytotoxicity at 2uM final concentration against transgenic Leishmania Mexicana promastigotes LmGT2 that are glucose transport deficient and complemented with the L. Mexicana glucose transporter 2. Activity is measured by DNA content using SYBR green in vitro
Type: functional
Please respond with reported inhibition for every item in the list.
Could you give me the number in %? Just the number is fine.

stdin: Lab note: need inhibition for c1ccc(CSC2=NNC(c3ccccn3)S2)cc1 (stereo not given) on Glucose transporter (Leishmania mexicana), anyone have it?
stdout: 2.48

stdin: Try this molecule next: `CNS(=O)(=O)Cc1ccc(Nc2nccc(Nc3cccc4c3cnn4C(=O)Nc3ccccc3)n2)cc1`
stdout: 3.72

stdin: Can you handle O=C(NCC1CCC(CNCCCc2ccccc2)CC1)Nc1ccc(Cl)c(Cl)c1 (stereo not given) next?
stdout: 0.92

stdin: Also, `Cc1cccc2nc(-c3cccc(-c4cccc(C(=O)NCCc5cn(C)cn5)c4)c3)[nH]c12` please.
stdout: 0.89

stdin: Entry `O=C(N[C@H]1CCN(Cc2ccc(OC3CCN(Cc4ccccc4)CC3)c(Cl)c2)C1)c1ccc(Cl)c(Cl)c1` please
stdout: 1.75

stdin: Field entry: `O=C(CCN1C(=O)c2ccccc2C1=O)N1CCN(CC=Cc2ccccc2)CC1`
stdout: -1.76

stdin: Next entry: `c1ccc(CNc2nc(NCCN3CCCCC3)nc3ccccc23)cc1`
stdout: 4.27

stdin: Likewise for `Cc1cccc(-c2c(C)nc(N)nc2N)c1` ?
stdout: 1.08

stdin: Then what about the molecule `Cc1cccc(Cn2nc(-c3ccccc3)c(N3CCCCC3)cc2=O)c1` ?
stdout: -2.21

stdin: And for `CN1CCN(c2ccnc3ccc(NC(=O)Nc4cccc5c(-c6ccncc6)cccc45)cc23)CC1` ?
stdout: 0.32
